Listed molecules paired with reported Ki
molecular target: Protease (Human immunodeficiency virus 1, UniProt Q9YQ12)
Sequence (Q9YQ12 whole entry): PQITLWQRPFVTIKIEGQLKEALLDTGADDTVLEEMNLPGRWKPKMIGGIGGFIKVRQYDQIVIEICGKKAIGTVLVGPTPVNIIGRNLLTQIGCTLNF

The following molecules have reported results that may help.
| MOLECULE | VALUE |
| --- | --- |
| COc1cc([C@@H]2Nc3ccccc3NC3=C2C(=O)C[C@@H](c2ccccc2)C3)cc(Cl)c1O (mixture of isomers) | ≤ 12 nM |
| CC1(C)CC(=O)C2=C(C1)Nc1ccccc1N(C(=O)C(=O)N1c3ccccc3NC3=C(C(=O)CC(C)(C)C3)C1c1ccccc1)C2c1ccccc1 (mixture of isomers; 5) | ≤ 12 nM |

Moving on to the next molecule.
Record O=C1CC(c2ccccc2)CC2=C1C(c1ccccc1)N(C(=O)C(=O)N1c3ccccc3NC3=C(C(=O)CC(c4ccccc4)C3)C1c1ccccc1)c1ccccc1N2 (mixture of isomers) , field Ki: ≤ 12 nM

###

pIC50: −log10 of the molar value.
# pIC50 per entry for Protease (Human immunodeficiency virus 1, UniProt Q9YQ12)
VALUE_KIND: pIC50

The following molecules have reported results that may help.
| MOLECULE | pIC50 |
| --- | --- |
| O=C1CC(c2ccccc2)CC2=C1C(c1ccccc1)Nc1ccccc1N2 (mixture of isomers) | 4.70 |
| CC1(C)CC(=O)C2=C(C1)Nc1ccccc1N(C(=O)C(=O)N1c3ccccc3NC3=C(C(=O)CC(C)(C)C3)C1c1ccccc1)C2c1ccccc1 (mixture of isomers; 5) | 7.52 |

[A] O=C1CC(c2ccccc2)CC2=C1C(c1ccccc1)N(C(=O)C(=O)N1c3ccccc3NC3=C(C(=O)CC(c4ccccc4)C3)C1c1ccccc1)c1ccccc1N2 (mixture of isomers)
[B] CC1(C)CC(=O)C2=C(C1)Nc1ccccc1NC2c1ccccc1 (racemic)
query: Between A and B , which one shows the larger pIC50 value? Write the label of whichever entry you select.
result: A
